- assayedTarget: Adenosine receptor A2a (Rattus norvegicus)
- Sequence (P30543 whole entry): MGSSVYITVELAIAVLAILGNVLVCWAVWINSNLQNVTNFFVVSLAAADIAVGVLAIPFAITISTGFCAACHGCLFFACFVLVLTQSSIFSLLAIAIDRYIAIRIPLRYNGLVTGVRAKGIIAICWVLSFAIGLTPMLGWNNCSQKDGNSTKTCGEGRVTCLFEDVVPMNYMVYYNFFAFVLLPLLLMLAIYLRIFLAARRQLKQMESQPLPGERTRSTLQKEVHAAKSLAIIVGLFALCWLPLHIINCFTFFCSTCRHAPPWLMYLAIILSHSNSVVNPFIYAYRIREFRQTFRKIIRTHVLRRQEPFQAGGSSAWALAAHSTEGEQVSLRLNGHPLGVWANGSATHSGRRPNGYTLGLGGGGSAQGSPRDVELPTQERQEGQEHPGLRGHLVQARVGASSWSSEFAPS
- assayName: Displacement of specific [3H]- CGS-21680 in rat striatal membranes A2a receptor
- Assay type: cell membranes, Membrane
measurementLabel: pKi
Answers are plain numbers, as −log10 of the molar value.

Check out these entries, answers already filled in.
CCCCn1c(=O)c2c(ncn2C2O[C@H](C(=O)N(C)C)[C@@H](O)[C@H]2O)n(CCCC)c1=O (some centres undefined) ... 4.27
CCCCCn1c(=O)c2c(ncn2C2O[C@H](CO)[C@@H](O)[C@H]2O)n(CCCCC)c1=O (some centres undefined) ... 4.33
CCCCn1c(=O)c2c(ncn2C2O[C@H](CO)[C@@H](O)[C@H]2O)n(CCCC)c1=O (some centres undefined) ... 4.71

Would you kindly look at the next entry?
Form field - read-out: pKi; system: Adenosine receptor A2a (Rattus norvegicus); submitted item: CCCCn1c(=O)c2c(ncn2C2O[C@H](CO)[C@@H](O)[C@H]2O)n(Cc2ccccc2)c1=O (some centres undefined)
5.06

###

- assayedTarget: Adenosine receptors; A1 & A3 (Rattus norvegicus) (UniProt P25099+P28647)
- assayName: Selectivity ratio (Ki's)for A1 and A3 receptors in rat brain
- Type: tissue-based
measurementLabel: Selectivity ratio
Give bare numbers.

CCCCn1c(=O)c2c(ncn2C2O[C@H](C(=O)NCC)[C@@H](O)[C@H]2O)n(CCCC)c1=O (some centres undefined) ... 10
CCCCn1c(=O)c2c(ncn2C2O[C@H](C(=O)OC)[C@@H](O)[C@H]2O)n(CCCC)c1=O (some centres undefined) ... 1.2
CCCCn1c(=O)c2c(ncn2C2O[C@H](C(=O)N(C)C)[C@@H](O)[C@H]2O)n(CCCC)c1=O (some centres undefined) ... 0.04

Would you kindly look at the next entry?
Name the reported Selectivity ratio value associated with the molecule CCCCn1c(=O)c2c(ncn2C2O[C@H](C(N)=O)[C@@H](O)[C@H]2O)n(CCCC)c1=O (some centres undefined)
0.2

###

- assayedTarget: Adenosine receptor A2a and A3 (Rattus norvegicus) (UniProt P30543+P28647)
- Sequence (P30543 whole entry, looked up, one chain of several): as the sequence (P30543 whole entry) above
- assayName: Selectivity for A2a and A3 receptors in rat brain as ratio of Ki
- Format: tissue-based
measurementLabel: Selectivity ratio

Check out these entries, answers already filled in.
Cn1c(=O)c2c(ncn2C2O[C@H](CO)[C@@H](O)[C@H]2O)n(C)c1=O (some centres undefined) ... > 1
CCCCCCn1c(=O)c2c(ncn2C2O[C@H](C(=O)NC)[C@@H](O)[C@H]2O)n(CCCCCC)c1=O (some centres undefined) ... > 10
COc1nc2c(c(=O)n(C)c(=O)n2C)n1C1O[C@H](CO)[C@@H](O)[C@H]1O (some centres undefined) ... > 1

Would you kindly look at the next entry?
Name the reported Selectivity ratio value associated with the compound CCCCn1c(=O)c2c(ncn2C2O[C@H](C(=O)N(C)C)[C@@H](O)[C@H]2O)n(CCCC)c1=O (some centres undefined)
0.23

###

- assayedTarget: Adenosine receptor A3 (Rattus norvegicus)
- Sequence (P28647 whole entry): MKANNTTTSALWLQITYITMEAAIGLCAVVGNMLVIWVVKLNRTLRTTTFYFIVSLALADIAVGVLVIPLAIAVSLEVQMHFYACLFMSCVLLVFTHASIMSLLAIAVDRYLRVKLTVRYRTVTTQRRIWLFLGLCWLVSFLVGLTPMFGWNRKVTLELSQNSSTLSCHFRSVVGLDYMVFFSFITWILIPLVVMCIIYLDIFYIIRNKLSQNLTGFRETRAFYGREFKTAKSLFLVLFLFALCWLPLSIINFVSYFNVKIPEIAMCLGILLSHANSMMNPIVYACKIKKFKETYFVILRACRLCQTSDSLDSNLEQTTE
- assayName: Displacement of specific [125]AB-MECA binding in membranes of CHO cells stably transfected with the rat A3-cDNA
measurementLabel: log10(Ki) (log10 of the value in µM)
Kindly note that the scale is log10 and the underlying Ki is in µM.

Check out these entries, answers already filled in.
CCCCCn1c(=O)c2c(ncn2C2O[C@H](C(=O)NC)[C@@H](O)[C@H]2O)n(CCCCC)c1=O (stereo not given in full) ... 0.42
CCCCn1c(=O)c2c(ncn2C2O[C@H](C(=O)OC)[C@@H](O)[C@H]2O)n(CCCC)c1=O (stereo not given in full) ... 0.51

Below are 5 molecules. Give each one its log10(Ki).
1. CCCCn1c(=O)c2c(ncn2C2O[C@H](C(=O)N(C)C)[C@@H](O)[C@H]2O)n(CCCC)c1=O (stereo not given in full)
2. CCCCCn1c(=O)c2c(ncn2C2O[C@H](CO)[C@@H](O)[C@H]2O)n(CCCCC)c1=O (stereo not given in full)
3. CCCCCCn1c(=O)c2c(ncn2C2O[C@H](CO)[C@@H](O)[C@H]2O)n(CCCCCC)c1=O (stereo not given in full)
4. Cn1c(=O)c2c(ncn2C2O[C@H](CO)[C@@H](O)[C@H]2O)n(C)c1=O (stereo not given in full)
5. CCCCn1c(=O)c2c(ncn2C2O[C@H](CO)[C@@H](O)[C@H]2O)n(CCCC)c1=O (stereo not given in full)

1. 2.36
2. 0.68
3. 1.63
4. 1.95
5. 0.78

Values compiled from ChEMBL document CHEMBL1127734.
